experiment: chemical genetic growth profiling, strain panel (AID 1159580);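 further: tested at 20 µM; growth read once vehicle control cultures reached saturation at 30 °C; 1 = growth at the plate median or of vehicle wells; lower values mean less growth of the strain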; conditions: S. cerevisiae deletion strains, growth OD, locus YIL125W, strain kgd1, stronger effect = lower value
In all, about 5,500 compounds went through this assay and about 2,000 (36%) were called active. Inconclusive results (about 18%) are left out. The list shows a part of the results.
measurement-label: normalized growth

[
  {
    "compound": "COC(=O)CCCOc1ccc(Cl)cc1Cl",
    "measurement-label": "normalized growth",
    "result-number": 0.983
  },
  {
    "compound": "Cc1cc(O)c(C=O)c2c1C(=O)Oc1c(COC(=O)/C=C/C(=O)O)c(O)c(C(=O)O)c(C)c1O2",
    "measurement-label": "normalized growth",
    "result-number": 0.969
  },
  {
    "compound": "CC(=O)O[C@H]1C[C@@H](OC(C)=O)C(C)(C)C2CC(=O)[C@]3(C)C(CC[C@@]4(C)[C@H](c5ccoc5)OC(=O)[C@H]5O[C@]543)[C@]21C (stereo partly specified)",
    "measurement-label": "normalized growth",
    "result-number": 1.01
  },
  {
    "compound": "Cc1nc2ccccn2c(=O)c1CCN1CCC(C(=O)c2ccc(F)cc2)CC1",
    "measurement-label": "normalized growth",
    "result-number": 1
  },
  {
    "compound": "CC(CCC(=O)O)[C@H]1CCC2C3CC[C@@H]4C[C@H](O)CC[C@]4(C)C3C[C@H](O)[C@@]21C (stereo partly specified)",
    "measurement-label": "normalized growth",
    "result-number": 0.988
  },
  {
    "compound": "COc1ccc(C(=O)N2CCCC2=O)cc1",
    "measurement-label": "normalized growth",
    "result-number": 0.992
  },
  {
    "compound": "Clc1ccc2c(c1)C(N1CCNCC1)=Nc1ccccc1O2",
    "measurement-label": "normalized growth",
    "result-number": 0.97
  },
  {
    "compound": "CC(CCC(=O)O)[C@H]1CCC2C3C[C@H](O)[C@@H]4C[C@H](O)CC[C@]4(C)C3CC[C@@]21C (stereo partly specified)",
    "measurement-label": "normalized growth",
    "result-number": 1.03
  },
  {
    "compound": "CC(CCC(=O)O)[C@H]1CCC2C3C(C[C@H](O)[C@@]21C)[C@@]1(C)CC[C@@H](O)C[C@H]1C[C@H]3O (stereo partly specified)",
    "measurement-label": "normalized growth",
    "result-number": 1.01
  },
  {
    "compound": "CC(=O)OCC(=O)[C@@]1(O)[C@H](OC(C)=O)CC2C3CCC4=CC(=O)C=C[C@]4(C)[C@@]3(F)[C@@H](O)C[C@@]21C (stereo partly specified)",
    "measurement-label": "normalized growth",
    "result-number": 0.996
  },
  {
    "compound": "N[C@@H]1[C@@H](O)[C@H](O)[C@@H](CO)O[C@H]1O",
    "measurement-label": "normalized growth",
    "result-number": 1.01
  },
  {
    "compound": "CCC(=O)c1ccc2c(c1)N(CC(C)N(C)C)c1ccccc1S2 (stereo unspecified)",
    "measurement-label": "normalized growth",
    "result-number": 1.01
  },
  {
    "compound": "CCOC(=O)[C@H](CCc1ccccc1)N[C@@H](C)C(=O)N1Cc2ccccc2C[C@H]1C(=O)O",
    "measurement-label": "normalized growth",
    "result-number": 1
  },
  {
    "compound": "C[C@H](N)[C@H](O)c1cccc(O)c1",
    "measurement-label": "normalized growth",
    "result-number": 0.988
  },
  {
    "compound": "CO[C@]12C[C@@H](COC(=O)c3cncc(Br)c3)CN(C)[C@@H]1Cc1cn(C)c3cccc2c13",
    "measurement-label": "normalized growth",
    "result-number": 1.01
  },
  {
    "compound": "CCCCCC1C(=O)CCC1CC(=O)OC (stereo unspecified)",
    "measurement-label": "normalized growth",
    "result-number": 0.961
  }
]

Provenance of the data: PubChem BioAssay AID1159580
